Source of measurements: PubChem BioAssay (NCATS)

test: qHTS of pediatric cancer cell lines to identify multiple opportunities for drug repurposing: Primary screen for TC32 cells (AID 1347089); settings: TC32 Ewing sarcoma viability, CellTiter-Glo luminescence, 48 h; series mostly up to 45.8 µM; note: nearly all actives have a fitted effect of over 60% in size
Results filed as inconclusive are left out. Calls of active or inactive are those of the source. Calls come from the whole dose curve; as a rule, active = well fitted cell-killing curve with a large enough effect; inconclusive = small, poorly fitted or top-dose-only effect; inactive = flat fitted curve, though single readings scatter.
Hello, when you answer, please use one of the following outcomes: yes (1) for active, no (0) for inactive

Example cases with answers are listed next.
CC(=O)C1=C(O)C=C2Oc3c(C(C)=O)c(O)c(C)c(O)c3C2(C)C1=O (configuration not stated) ... no (0)
CC(=O)O[C@@]12CO[C@H]1C[C@H](O)[C@@]1(C)C(=O)[C@H](O)C3=C(C)[C@@H](OC(=O)C(O)[C@@H](NC(=O)OC(C)(C)C)c4ccccc4)C[C@@](O)([C@@H](OC(=O)c4ccccc4)[C@@H]21)C3(C)C (some centres not stated) ... yes (1)
CCOC(=O)N1CCN([N+]([O-])=NOc2ccc([N+](=O)[O-])cc2C#N)CC1 ... yes (1)

IN: Assay result, entry C[C@](Cc1c[nH]c2ccccc12)(NC(=O)OC1C2CC3CC(C2)CC1C3)C(=O)NC[C@H](NC(=O)CCC(=O)O)c1ccccc1 (some centres not stated) — outcome?
OUT: no (0)

IN: Assay result, entry CN1[C@H]2CC(OC(=O)[C@@H](CO)c3ccccc3)C[C@H]1[C@H]1O[C@H]12 (some centres not stated) — outcome?
OUT: no (0)

IN: Assay result, entry `C=C1C(=O)O[C@H]2[C@@H]1CCC(C)=CCC[C@@]1(C)O[C@@H]21` — outcome?
OUT: yes (1)

IN: Assay result, entry `O=c1ccn([C@@H]2O[C@H](CO)[C@H](O)[C@@H]2F)c(=O)[nH]1` — outcome?
OUT: no (0)

IN: Assay result, entry `CC(C)(O)[C@H]1CC[C@@](C)([C@H]2[C@@H](O)C[C@@]3(C)[C@@H]4C[C@H](O[C@@H]5O[C@H](CO)[C@@H](O)[C@H](O)[C@@H]5O)[C@H]5C(C)(C)[C@@H](O[C@@H]6OC[C@@H](O)[C@H](O)[C@@H]6O)CC[C@@]56C[C@@]46CC[C@]23C)O1` — outcome?
OUT: no (0)
